Data provenance: PubChem BioAssay (EPA / NIEHS)

TESTED ON: Aryl hydrocarbon receptor (Homo sapiens) (UniProt P35869)
Sequence (P35869 whole entry, looked up): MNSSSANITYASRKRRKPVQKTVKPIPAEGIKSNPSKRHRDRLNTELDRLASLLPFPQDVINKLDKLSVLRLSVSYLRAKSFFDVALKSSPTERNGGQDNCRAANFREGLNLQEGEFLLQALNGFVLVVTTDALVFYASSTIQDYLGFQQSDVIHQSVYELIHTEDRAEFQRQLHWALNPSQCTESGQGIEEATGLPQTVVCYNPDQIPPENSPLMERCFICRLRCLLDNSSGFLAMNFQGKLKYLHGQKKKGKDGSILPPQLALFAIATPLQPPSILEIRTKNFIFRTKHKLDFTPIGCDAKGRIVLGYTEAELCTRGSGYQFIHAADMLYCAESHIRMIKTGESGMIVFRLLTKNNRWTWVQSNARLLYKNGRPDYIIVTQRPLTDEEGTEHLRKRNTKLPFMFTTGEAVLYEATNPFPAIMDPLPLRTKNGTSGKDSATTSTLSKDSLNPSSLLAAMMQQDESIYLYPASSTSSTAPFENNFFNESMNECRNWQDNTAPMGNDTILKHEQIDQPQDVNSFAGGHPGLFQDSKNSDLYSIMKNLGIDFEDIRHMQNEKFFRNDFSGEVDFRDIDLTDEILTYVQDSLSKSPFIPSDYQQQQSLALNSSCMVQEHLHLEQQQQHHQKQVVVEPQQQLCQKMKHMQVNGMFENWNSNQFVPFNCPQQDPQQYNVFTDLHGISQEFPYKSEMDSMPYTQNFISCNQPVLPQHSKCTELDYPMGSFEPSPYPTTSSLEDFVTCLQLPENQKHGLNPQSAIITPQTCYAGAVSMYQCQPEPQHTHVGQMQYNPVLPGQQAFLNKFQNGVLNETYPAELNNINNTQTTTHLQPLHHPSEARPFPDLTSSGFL
PROCEDURE SUMMARY: ATG_Ahr_CIS: Attagene CIS-FACTORIAL HepG2 Assay for human Aryl Hydrocarbon Receptor (Ahr) (AID 2282930)
CONDITION DETAILS: HepG2 AhR cis-factorial reporter transcription; actives raise or lower the signal
Activity calls are given as the source filed them. The calls were made as follows: active = hit-call score of the fitted dose curve at least 0.9, where 1 is the maximum; inactive = score below 0.9.
QUANTITY KIND: outcome

S=C([S-])NCCNC(=S)[S-].[Mn+2]
inactive
CCOC(=O)NCCOc1ccc(Oc2ccccc2)cc1
inactive
O=C(O)c1ccccc1
inactive
COC(=O)c1ccc(I)cc1S(=O)(=O)NC(=O)Nc1nc(C)nc(OC)n1
inactive

* * *

Tested on: turtle Estrogen Receptor (ESR1), gene 101933533
PROCEDURE SUMMARY: ATG_trERa_XSP1: Attagene TRANS-FACTORIAL Multi-Species (XSP1) HepG2 Assay for turtle Estrogen Receptor (ESR1) (AID 2283781)
Results filed as inconclusive are left out. Calls of active or inactive are those of the source. Rule for the calls: active = hit-call score of the fitted dose curve at least 0.9, where 1 is the maximum; inconclusive = response in the unintended direction; inactive = score below 0.9.
Respond with a class label; see True = active, False = inactive

As a guide, the following entries are already answered.
CC(C)(c1ccc(O)cc1)c1ccc(O)cc1
True
CC(C)CCCCCCc1ccc(O)cc1
True
CCCCC(CC)COC(=O)c1ccccc1C(=O)O (stereo not given)
True

Exercise: What classification did CC1(C)C(C=C(Cl)Cl)C1C(=O)OCc1cccc(Oc2ccccc2)c1 (stereo not given) end up with in this test?
Key: False

Exercise: Next entry: CC(=O)S[C@@H]1CC2=CC(=O)CC[C@]2(C)[C@H]2CC[C@@]3(C)[C@@H](CC[C@@]34CCC(=O)O4)[C@H]12
Key: False

* * *

PROCEDURE SUMMARY: CCTE_Shafer_MEA_acute_AB: CCTE's Alamar Blue Assay for Cytotoxicity in the Neural Acute Assay, Shafer Lab (AID 2284069);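 also: active compounds lower the viability signal compared with DMSO wells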
Results filed as inconclusive are left out. The source made the active and inactive calls. The calls were made as follows: active = hit-call score of the fitted dose curve at least 0.9, where 1 is the maximum; inconclusive = response in the unintended direction; inactive = score below 0.9.
QUANTITY KIND: outcome

Consider the following illustrative entries.
CCNc1nc(N)nc(Cl)n1
inactive
O=C(c1ccccc1)C1CCCCC1
inactive
C#CCOC(=O)[C@@H](C)Oc1ccc(Oc2ncc(Cl)cc2F)cc1
inactive
CC(C)(C)[C@@H](O)[C@@H](Cc1ccc(Cl)cc1)n1cncn1
inactive
O=C(Nc1ccc([N+](=O)[O-])cc1Cl)c1cc(Cl)ccc1O
inactive
O=C(c1ccc(O)cc1O)c1ccc(O)cc1O
inactive

// next entry
Exercise: Entry CCCCC(CC)CN1C(=O)C2C3C=CC(C3)C2C1=O (configuration not stated) : reported outcome = ?
Key: inactive

* * *

PROCEDURE SUMMARY: BSK_4H_SRB: Viability Assessment in the BioMAP Diversity Plus: 4H Assay (AID 2283027);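 also: cells exposed to compound for 24 h before staining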
CONDITION DETAILS: primary human endothelial cells (HUVEC)
Activity calls are given as the source filed them. Rule for the calls: active = hit-call score of the fitted dose curve at least 0.9, where 1 is the maximum; inactive = score below 0.9.
Respond with a class label; see active, inactive

As a guide, the following entries are already answered.
C#C[C@]1(O)CC[C@H]2[C@@H]3CCC4=CC(=O)CC[C@@H]4[C@H]3CC[C@@]21CC
inactive
CC(=O)[C@H]1CC[C@H]2[C@@H]3CCC4=CC(=O)CC[C@]4(C)[C@H]3CC[C@]12C
inactive

Exercise: What classification did CCCCC(CC)CN1C(=O)C2C3C=CC(C3)C2C1=O (configuration not stated) end up with in this test?
Key: inactive

Exercise: Next entry: CC(C)CCCCCCc1ccc(O)cc1
Key: active

Exercise: Next entry: CCOC(=O)c1ccc(O)cc1
Key: inactive

* * *

TESTED ON: Peroxisome proliferator-activated receptor gamma (Homo sapiens) (UniProt P37231)
Sequence (P37231 whole entry, looked up): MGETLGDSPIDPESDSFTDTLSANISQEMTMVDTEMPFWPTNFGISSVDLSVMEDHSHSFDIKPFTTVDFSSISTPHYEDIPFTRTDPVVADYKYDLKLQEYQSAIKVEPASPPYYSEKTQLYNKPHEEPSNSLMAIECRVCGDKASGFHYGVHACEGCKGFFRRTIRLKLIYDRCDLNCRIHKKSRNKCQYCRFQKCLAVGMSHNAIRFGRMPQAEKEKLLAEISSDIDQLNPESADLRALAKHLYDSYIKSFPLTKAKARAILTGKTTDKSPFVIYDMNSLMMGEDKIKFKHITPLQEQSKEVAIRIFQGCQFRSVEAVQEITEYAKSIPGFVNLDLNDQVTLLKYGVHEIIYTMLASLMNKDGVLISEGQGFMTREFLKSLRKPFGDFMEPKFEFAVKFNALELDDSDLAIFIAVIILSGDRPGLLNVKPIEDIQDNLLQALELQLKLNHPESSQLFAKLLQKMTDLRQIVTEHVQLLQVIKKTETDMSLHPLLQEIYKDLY
PROCEDURE SUMMARY: ATG_PPARg_TRANS: Attagene TRANS-FACTORIAL HepG2 Assay for human Peroxisome Proliferator-activated Receptor-gamma (PPARg) (AID 2283007)
Records with an inconclusive call do not appear. Active and inactive are the calls of the source. The calls were made as follows: active = hit-call score of the fitted dose curve at least 0.9, where 1 is the maximum; inconclusive = response in the unintended direction; inactive = score below 0.9.
QUANTITY KIND: AC50

Consider the following illustrative entries.
COC(=O)CSc1cc(N=c2sc(=O)n3n2CCCC3)c(F)cc1Cl
27.4 µM (active)
CCSC(=O)N(CC(C)C)CC(C)C
inactive
COC(=O)c1cccc(C)c1S(=O)(=O)NC(=O)Nc1nc(OCC(F)(F)F)nc(N(C)C)n1
inactive
CCC(O)=C1C(=O)CC(C(=O)O)CC1=O (centres undefined)
22.3 µM (active)
CCN(Cc1c(F)cccc1Cl)c1c([N+](=O)[O-])cc(C(F)(F)F)cc1[N+](=O)[O-]
inactive

Exercise: Entry C[C@]12CC[C@@H]3c4ccc(O)cc4C[C@@H](CCCCCCCCCS(=O)CCCC(F)(F)C(F)(F)F)[C@H]3[C@@H]1CC[C@@H]2O (some centres undefined) : reported AC50 = ?
Key: inactive

Exercise: Next entry: COCCO
Key: inactive

Exercise: Next entry: CC(C)(C)[C@@H](O)[C@@H](Cc1ccc(Cl)cc1)n1cncn1
Key: inactive

Exercise: Next entry: S=C([S-])NCCNC(=S)[S-].[Mn+2]
Key: inactive

Exercise: Next entry: Oc1ccc(C(c2ccc(O)cc2)C(Cl)(Cl)Cl)cc1
Key: inactive

Exercise: Next entry: COc1c(Cl)ccc(Cl)c1C(=O)O
Key: inactive

Exercise: Next entry: CSC(=O)c1cccc2nnsc12
Key: inactive

Exercise: Next entry: C#C[C@]1(O)CC[C@H]2[C@@H]3CCC4=CC(=O)CC[C@@H]4[C@H]3CC[C@@]21CC
Key: inactive

* * *

Read-out: growth arrest and DNA damage 45 (GADD45B), GADD45B (gene 4616)
PROCEDURE SUMMARY: LTEA_HepaRG_GADD45B: Life Technologies and Expression Analysis (LTEA) Assay for growth arrest and DNA damage 45 (GADD45B) using HepaRG (AID 2283461)
CONDITION DETAILS: mRNA level, 48 h; actives raise or lower the signal
The source made the active and inactive calls. Rule for the calls: active = hit-call score of the fitted dose curve at least 0.9, where 1 is the maximum; inactive = score below 0.9.
Respond with a class label; see true (1) (active), false (0) (inactive)

CCCCCCC(C)OC(=O)COc1nc(F)c(Cl)c(N)c1Cl (stereo not drawn)
false (0)
S=C([S-])NCCNC(=S)[S-].[Mn+2]
true (1)
CCNc1nc(N)nc(Cl)n1
false (0)
C[C@]12C[C@H](O)[C@H]3[C@@H](CCC4=CC(=O)CC[C@@]43C)[C@@H]1CC[C@@H]2C(=O)CO
false (0)
O=C(c1ccc(O)cc1O)c1ccc(O)cc1O
false (0)
CCC(C)OC(=O)N1CCCCC1CCO (stereo not drawn)
false (0)
N#CSCSc1nc2ccccc2s1
false (0)
COCCO
false (0)
c1ccc(Nc2ccccc2)cc1
false (0)
COc1c(Cl)ccc(Cl)c1C(=O)O
false (0)

Exercise: What classification did CC(=O)[C@H]1CC[C@H]2[C@@H]3CCC4=CC(=O)CC[C@]4(C)[C@H]3CC[C@]12C end up with in this test?
Key: true (1)

Exercise: Next entry: CC(C)CCCCCCc1ccc(O)cc1
Key: false (0)

Exercise: Next entry: O=C(Nc1ccc([N+](=O)[O-])cc1Cl)c1cc(Cl)ccc1O
Key: true (1)

* * *

Read-out: ABC Transporter (ABCC3), ABCC3 (gene 8714)
PROCEDURE SUMMARY: LTEA_HepaRG_ABCC3: Life Technologies and Expression Analysis (LTEA) Assay for ABC Transporter (ABCC3) using HepaRG (AID 2283462)
CONDITION DETAILS: mRNA level, 48 h; actives raise or lower the signal
Calls of active or inactive are those of the source. How the source made its calls: active means hit-call score of the fitted dose curve at least 0.9, where 1 is the maximum; inactive means score below 0.9.
QUANTITY KIND: outcome

CCNc1nc(N)nc(Cl)n1
inactive
CCCN(CCC)c1c([N+](=O)[O-])cc(C(F)(F)F)c(N)c1[N+](=O)[O-]
inactive
COC(=O)c1ccccc1C(=O)O
inactive
CCCCC(CC)COC(=O)c1ccccc1C(=O)O (stereo unspecified)
inactive
O=C(c1ccccc1)C1CCCCC1
inactive

// next entry
Exercise: Entry CCN(Cc1c(F)cccc1Cl)c1c([N+](=O)[O-])cc(C(F)(F)F)cc1[N+](=O)[O-] : reported outcome = ?
Key: inactive

* * *

PROCEDURE SUMMARY: APR_HepG2_NuclearSize_24hr: Apredica 24-hour HepG2 Assay for Nuclear Size (AID 2282907)
CONDITION DETAILS: high-content imaging, actives raise or lower the signal
Experimental: APR_HepG2_24hr is a cell-based, multiplexed-readout assay that uses HepG2, a human liver cell line, with measurements taken at 24 hours after chemical dosing in a 384-well plate.APR_HepG2_NuclearSize_24hr is one of 10 assay component(s) measured or calculated from the APR_HepG2_24hr assay. […] This assay endpoint, APR_HepG2_NuclearSize_24hr, was analyzed with bidirectional fitting relative to DMSO as the negative control and baseline of activity. […]
Active and inactive are the calls of the source. How the source made its calls: active means hit-call score of the fitted dose curve at least 0.9, where 1 is the maximum; inactive means score below 0.9.
Respond with a class label; see active, inactive

As a guide, the following entries are already answered.
CCCCC(CC)COC(=O)c1ccccc1C(=O)O (stereo not drawn)
inactive
C[C@]12CC[C@@H]3c4ccc(O)cc4C[C@@H](CCCCCCCCCS(=O)CCCC(F)(F)C(F)(F)F)[C@H]3[C@@H]1CC[C@@H]2O (stereo partly drawn)
inactive

Exercise: What classification did CCOC(=O)C(C)Oc1ccc(Oc2nc3ccc(Cl)cc3o2)cc1 (stereo not drawn) end up with in this test?
Key: inactive

Exercise: Next entry: c1ccc(Nc2ccccc2)cc1
Key: inactive

Exercise: Next entry: CCNc1nc(N)nc(Cl)n1
Key: inactive

Exercise: Next entry: CCCOC(=O)NCCCN(C)C
Key: inactive

Exercise: Next entry: CCSC(=O)N(CC(C)C)CC(C)C
Key: inactive

Exercise: Next entry: CCOC(=O)c1ccc(O)cc1
Key: inactive

Exercise: Next entry: Cc1nn(C)c(Oc2ccccc2)c1C=NOCc1ccc(C(=O)OC(C)(C)C)cc1
Key: inactive

Exercise: Next entry: OB(O)O
Key: inactive

Exercise: Next entry: c1ccc2[nH]c(-c3cscn3)nc2c1
Key: inactive

Exercise: Next entry: CCOC(=O)C(C)Oc1ccc(Oc2cnc3cc(Cl)ccc3n2)cc1 (stereo not drawn)
Key: inactive

Exercise: Next entry: COCCO
Key: inactive

Exercise: Next entry: S=C([S-])NCCNC(=S)[S-].[Mn+2]
Key: inactive

Exercise: Next entry: S=C(S)NCCNC(=S)S.[Mn+2].[S-]C([S-])=NCCN=C([S-])[S-].[Zn+2]
Key: inactive
